- TARGET SYSTEM: Serine/threonine-protein phosphatase PP1-alpha catalytic subunit (Homo sapiens) (UniProt P62136)
- Sequence (P62136 whole entry, looked up): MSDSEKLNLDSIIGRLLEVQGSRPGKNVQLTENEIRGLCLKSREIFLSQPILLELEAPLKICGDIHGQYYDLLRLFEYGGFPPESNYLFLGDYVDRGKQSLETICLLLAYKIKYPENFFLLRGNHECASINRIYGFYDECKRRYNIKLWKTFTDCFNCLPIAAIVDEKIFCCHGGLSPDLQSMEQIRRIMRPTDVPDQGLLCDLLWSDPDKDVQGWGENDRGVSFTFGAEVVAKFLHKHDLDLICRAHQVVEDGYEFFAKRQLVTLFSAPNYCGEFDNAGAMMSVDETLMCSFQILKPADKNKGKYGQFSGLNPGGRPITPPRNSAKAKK
- PROCEDURE SUMMARY: dose-dependent PP1alpha phosphatase inhibition – biochemical, fluorescence, OMFP substrate, set 1, dose response (AID 652222)
- CONDITION INFO: purified PP1alpha, OMFP dephosphorylation
Listed here: items and their measured IC50.

COc1ccc(C(c2ccc3cccnc3c2O)N2CCN(C)CC2)nc1 (stereo not drawn) | 1690 nM
Cc1ccnc(C(c2ccc3cccnc3c2O)N2CCN(C)CC2)c1 (stereo not drawn) | 1800 nM
Oc1c(C(c2ccccn2)N2CCCC2)ccc2cccnc12 (stereo not drawn) | 1410 nM

Pending compound:
Ask | Query: IC50; subject: CN1CCN(C(c2ncccn2)c2ccc3cccnc3c2O)CC1 (stereo not drawn)
Reply | 2690 nM
